Items are presented alongside their recorded Enzyme Activity Endpoint Assay (purified): scIgG.
- Target Under Test: pooled human IgG
Value Type: Enzyme Activity Endpoint Assay (purified): scIgG (ng/µL)

Protein: PRT-150 (protein) MANQEIRYSEVTPYHVTSVWTKGVTPPANFTQGEDVFHAPYVANQGWYDITKTFNGKDDLLCGAATAGNMLHWWFDQNKDQIKRYLEEHPEKQKINFNGEQMFDVKEAIDTKNHQLDSKLFEYFKEKAFPYLSTKHLGVFPDHVIDMFINGYRLSLTNHGPTPVKRQEKDPRGGIFDAVFGRGDQTKLLTSRHDFKEKNLKEISDLIKKELTEGKALGLSHTYANVRINHVINLWGADFDSNGNLKAIYVTDSDSNASIGMKKYFVGVNSAGKVAISAKEIKEDNIGAQVLGLFTLSTGQKSWNKTN
Test Result: 0
//
Protein: PRT-154 (protein) MANQEIRYSEVTPYHVTSVWTKGVTPPANFTQGEDVFHAPYVANQGWYDITKTFNGKDDLLCGAATAGNMLHWWFDQNKTQIEAYLKKHPEKQKINFNGEQMFDVKEAIDTKNHQLDSKLFEYFKEKAFPYLSTKHLGVFPDHVIDMFINGYRLSLTNHGPTPVKEGSKDPRGGIFDAVFTRGDQSKLLTSRHDFKEKNLKEISDLIKKELTEGKALGLSHTYANVRINHVINLWGADFDSNGNLKAIYVTDSDSNASIGMKKYFVGVNSAGKVAISAKEIKEDNIGAQVLGLFTLSTGKKSWEKTN
Test Result: 0
